// provenance: patent US12281155

# assay.target: T1, recombinant SARS-CoV-2 Spike RBD domain, BA.2.86 variant (SARS-CoV-2)
# T1 construct: also called RBD BA.2.86 variant
# method: competition ELISA, blocking of RBD binding to ACE2 ectodomain
readout.type: Blocking % (%)
Give just the numeric value; % need not be written.

Return value of Blocking % for input SPK002M A3 antibody (antibody, human IgG1, kappa, V domains shown) VH: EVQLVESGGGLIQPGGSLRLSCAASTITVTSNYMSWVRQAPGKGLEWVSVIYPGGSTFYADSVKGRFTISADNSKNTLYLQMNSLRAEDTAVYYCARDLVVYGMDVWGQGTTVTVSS VL: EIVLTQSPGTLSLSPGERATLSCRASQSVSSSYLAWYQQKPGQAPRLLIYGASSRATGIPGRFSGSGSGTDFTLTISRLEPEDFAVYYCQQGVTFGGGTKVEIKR , no commentary. 85

Give reported Blocking % value for SPK002M A4 antibody (antibody, human IgG1, kappa, V domains shown) VH: EVQLVESGGGLIQPGGSLRLSCAASVITVTSNYMSWVRQAPGKGLEWVSVIYPGGSTFYADSVKGRFTISADNSKNTLYLQMNSLRAEDTAVYYCARDLVVYGMDVWGQGTTVTVSS VL: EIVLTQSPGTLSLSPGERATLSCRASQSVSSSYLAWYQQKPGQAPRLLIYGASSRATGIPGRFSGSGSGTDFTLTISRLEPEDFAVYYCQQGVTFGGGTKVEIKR 80

Query Blocking % for SPK002M A5 antibody (antibody, human IgG1, kappa, V domains shown) VH: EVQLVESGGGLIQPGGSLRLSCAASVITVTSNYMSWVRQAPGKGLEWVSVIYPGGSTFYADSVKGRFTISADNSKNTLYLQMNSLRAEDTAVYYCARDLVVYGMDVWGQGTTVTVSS VL: EIVLTQSPGTLSLSPGERATLSCRASQSVSSSYLAWYQQKPGQAPRLLIYGASSRATGIPGRFSGSGSGTDFTLTISRLEPEDFAIYYCQQGVTFGGGTKVEIKR 84

Name the recorded Blocking % of the item SPK002M C2 antibody (antibody, human IgG1, kappa, V domains shown) VH: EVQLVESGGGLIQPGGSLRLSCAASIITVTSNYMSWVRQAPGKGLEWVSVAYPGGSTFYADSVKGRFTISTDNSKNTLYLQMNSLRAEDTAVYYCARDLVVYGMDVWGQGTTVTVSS VL: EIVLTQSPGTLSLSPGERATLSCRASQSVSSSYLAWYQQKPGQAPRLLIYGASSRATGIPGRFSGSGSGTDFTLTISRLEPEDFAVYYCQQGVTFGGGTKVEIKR in your answer. 91

Consider the binder SPK002M A1 antibody (antibody, human IgG1, kappa, V domains shown) VH: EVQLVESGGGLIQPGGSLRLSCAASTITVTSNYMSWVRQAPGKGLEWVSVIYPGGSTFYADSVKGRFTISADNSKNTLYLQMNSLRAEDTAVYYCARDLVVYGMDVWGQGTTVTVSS VL: EIVLTQSPGTLSLSPGERATLSCRASQGFSSSYLAWYQQKPGQAPRLLIYGASSRATGIPGRFSGSGSGTDFTLTISRLEPEDFAVYYCQQGVTFGGGTKVEIKR and give its recorded Blocking %. 85
